Hello, the source for this data is patent US8889704B2, in case you need it.

Target: GST-tagged recombinant full-length human Pim-2 (Homo sapiens)
Construct: GST-tagged recombinant full-length human Pim-2; GST
Sequence (Q9P1W9 whole entry): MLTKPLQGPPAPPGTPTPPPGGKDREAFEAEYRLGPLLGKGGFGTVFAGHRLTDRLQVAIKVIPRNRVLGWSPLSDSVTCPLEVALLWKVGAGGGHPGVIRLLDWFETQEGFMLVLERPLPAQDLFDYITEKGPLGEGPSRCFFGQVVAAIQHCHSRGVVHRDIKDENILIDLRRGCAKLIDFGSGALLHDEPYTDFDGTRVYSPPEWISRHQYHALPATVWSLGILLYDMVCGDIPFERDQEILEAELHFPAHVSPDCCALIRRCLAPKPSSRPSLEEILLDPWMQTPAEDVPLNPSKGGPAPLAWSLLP
Assay: PIM-2 Assay (as Example A)
Conditions: averaged IC50; 4 μM ATP, 1.0 μM PIM2tide, 1.5 nM Pim-2
Counter-ions that a name gives are not always drawn.
quantity.kind: IC50

[
  {
    "compound": "CCSc1cccc2ccc(-c3nnc4ccc([C@@H](N5CC[C@H](N)C5)C(F)(F)F)cn34)nc12 [Example 273, hydrochloride]",
    "study.system": "GST-tagged recombinant full-length human Pim-2 (Homo sapiens)",
    "observed.value": "> 1000 nM"
  },
  {
    "compound": "COc1cccc2ccc(-c3nnc4ccc(C(N5CCCC5)C(F)(F)F)cn34)nc12 (stereo not shown) [Example 6]",
    "study.system": "GST-tagged recombinant full-length human Pim-2 (Homo sapiens)",
    "observed.value": "> 1000 nM"
  },
  {
    "compound": "COCCc1cc2nc(-c3nnc4ccc([C@H](N5CC[C@](C)(N)C5)C(F)(F)F)cn34)ccc2cc1F [Example 284, dihydrochloride]",
    "study.system": "GST-tagged recombinant full-length human Pim-2 (Homo sapiens)",
    "observed.value": "50 nM"
  },
  {
    "compound": "COCCOc1ccc2ccc(-c3nnc4ccc([C@@H](N5CC[C@H](N)C5)C(F)(F)F)cn34)nc2c1F [Example 179, dihydrochloride]",
    "study.system": "GST-tagged recombinant full-length human Pim-2 (Homo sapiens)",
    "observed.value": "> 100 nM"
  }
]
